Ref: patent US20250268854A1

# Assay remarks: in vivo
# Run parameters: mouse, Kpuu
Measured property: Kp uu at 1 h

**Q:** Record request: Kp uu at 1 h value, item Cc1cccc(NC(=O)c2ccc(C(F)(F)F)cc2C(=O)O)n1 [Comparative Example 1, reference compound]
**A:** < 0.1

* * *

The following compounds are shown together with reported concentration at 1 h values.
# Assay remarks: Blood-brain-barrier permeability of study compounds in mice after PO administration
# Run parameters: mouse, plasma, po, Unbound Plasma Concentration (ng/mL) T = 1 hour, T = 1 hour
Counter-ions that a name gives are not always drawn.
The reply should be a number in ng/mL, with the unit left off.

Consider the following illustrative entries.
INSERT INTO measurements (compound, measured_property, uom, measured_result) VALUES
  ('Cn1ccc2c(CN[C@@H](CCC(C)(C)C)C(=O)O)cccc21 [Example 6, hydrochloride]', 'concentration at 1 h', 'ng/mL', 8),
  ('COc1cccc(CN[C@@H](CCC(C)(C)C)C(=O)O)c1.Cl', 'concentration at 1 h', 'ng/mL', 117);

Next item in the queue.
**Q:** Return reported concentration at 1 h; argument: Cc1cccc(NC(=O)c2ccc(C(F)(F)F)cc2C(=O)O)n1 [Comparative Example 1, reference compound]
**A:** 27

* * *

# Experimental target: h-Sortilin (Homo sapiens (Human))
# Sequence (Q99523 78-831): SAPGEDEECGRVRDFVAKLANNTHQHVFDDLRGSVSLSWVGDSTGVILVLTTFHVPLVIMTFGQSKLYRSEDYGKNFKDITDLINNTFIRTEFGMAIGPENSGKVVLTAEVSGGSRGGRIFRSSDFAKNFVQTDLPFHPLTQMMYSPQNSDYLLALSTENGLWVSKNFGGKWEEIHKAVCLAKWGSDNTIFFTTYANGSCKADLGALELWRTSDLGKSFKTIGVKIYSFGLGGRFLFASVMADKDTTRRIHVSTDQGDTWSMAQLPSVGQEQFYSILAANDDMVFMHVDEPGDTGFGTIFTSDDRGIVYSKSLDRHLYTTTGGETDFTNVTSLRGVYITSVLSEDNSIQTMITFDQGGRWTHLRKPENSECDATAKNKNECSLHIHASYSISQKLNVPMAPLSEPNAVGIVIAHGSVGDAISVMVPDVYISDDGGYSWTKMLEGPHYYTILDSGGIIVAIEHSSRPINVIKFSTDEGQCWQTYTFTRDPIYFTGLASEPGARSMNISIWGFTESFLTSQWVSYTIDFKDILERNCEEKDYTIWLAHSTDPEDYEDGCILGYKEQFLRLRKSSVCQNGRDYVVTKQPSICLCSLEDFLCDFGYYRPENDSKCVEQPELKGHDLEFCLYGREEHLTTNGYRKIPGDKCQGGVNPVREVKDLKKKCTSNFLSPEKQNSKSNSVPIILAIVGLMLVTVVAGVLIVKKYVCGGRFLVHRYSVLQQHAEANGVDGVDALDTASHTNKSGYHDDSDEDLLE
# Assay remarks: Neurotensin (NTS) scintillation proximity assay (SPA): displacement of [3H]-neurotensin binding
# Run parameters: 150 nM 6his-Sortilin, 5 nM [3H]-Neurotensin; average of at least 2 determinations
Where a name gives a salt, the structure may show the parent alone.
Measured property: IC50 (nM)
Note: unit nM is implicit; provide only the numeric part.

INSERT INTO assay_data (molecule, experimental_target, measured_property, measured_result) VALUES
  ('C[C@@H](N[C@@H](CCC(C)(C)C)C(=O)O)c1ccccc1 [Example 14, hydrochloride]', 'h-Sortilin (Homo sapiens (Human))', 'IC50', 610),
  ('COc1ccc2cc(CN[C@@H](CCC(C)(C)C)C(=O)O)ccc2c1 [Example 85]', 'h-Sortilin (Homo sapiens (Human))', 'IC50', 1050),
  ('CC(C)(C)CC[C@H](NCc1ccc2c(c1)CCCO2)C(=O)O [Example 40]', 'h-Sortilin (Homo sapiens (Human))', 'IC50', 470),
  ('COc1ccccc1CN[C@@H](CCC(C)(C)C)C(=O)O [Example 9, hydrochloride]', 'h-Sortilin (Homo sapiens (Human))', 'IC50', 630);

Lab note: next molecule to report on.
**Q:** # get_value(readout='IC50', item= CC(C)(C)CC[C@H](NCc1ccc2nccnc2c1)C(=O)O [Example 42] )
**A:** 400

* * *

# Experimental target: UniProtKB Q99523
# Assay remarks: Creoptix (GCI) binding kinetics, human Sortilin
# Run parameters: Ms salt, screened at 1 μM
Measured property: Kd (nM)
Report only the number, with the unit nM understood.

Illustrative cases are given below, each with its answer.
INSERT INTO assay_data (molecular_string, measured_property, measured_result) VALUES
  ('CC(C)(C)CC[C@H](NCc1ccc(Cl)c(Cl)c1)C(=O)O', 'Kd', 522),
  ('Cc1ccc(CN[C@@H](CCC(C)(C)C)C(=O)O)cc1Cl', 'Kd', 512);

**Q:** Give recorded Kd with UniProtKB Q99523 for the following compound: COc1cccc(CN[C@@H](CCC(C)(C)C)C(=O)O)c1.Cl
**A:** 423
